SH2 binding enrichment: recorded values
# systemName: SHP2-C SH2;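 note: peptide library displayed on the E. coli surface as eCPX fusions, selected cells deep-sequenced, score is each peptide's frequency after selection divided by its frequency in the input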
# method: SH2 binding enrichment of the phosphorylated peptide, bacterial display (enrichment ratio); higher = better substrate or ligand; peptides without Tyr show the background
Please give the numeric answer without any surrounding text.

Below, each entry is followed by its recorded SH2 binding enrichment result.
[
  {
    "itemSequence": "EREFKYDAHNF [OAT_Y50_G51D_YF]",
    "reportedMetric": "SH2 binding enrichment",
    "valueMeasured": 0.629
  },
  {
    "itemSequence": "NKVKFYIPYMN [NCR1_Y84_D87Y]",
    "reportedMetric": "SH2 binding enrichment",
    "valueMeasured": 1.65
  },
  {
    "itemSequence": "MTFMFYRENLR [NLRP14_Y443_V441M_YF]",
    "reportedMetric": "SH2 binding enrichment",
    "valueMeasured": 1.22
  }
]

Q: Check the records and state SH2 binding enrichment for FRVDCYKNFVA [FHL1_Y213_C209R_YF]
Result: 0.703

Q: Give the reported value of SH2 binding enrichment for this record: ISDEAYVMAGV [ERBB2_Y772_L768S]
Result: 0.6

Q: Provide one value: measured SH2 binding enrichment of NKKFHYRELPV [ERN2_Y860_H858Y_YF]
Result: 1.06

Q: Recall and state the measured SH2 binding enrichment for QSRSPYSSRHS [CDK13_Y415_R410Q] .
Result: 0.852

Q: Please report the measured SH2 binding enrichment for YECKWYIPLTD [BCR_Y756_D752E]
Result: 0.665

Q: Kindly indicate its recorded SH2 binding enrichment. Item: KANEFYPVVLI [ADAMTS18_Y765_YF]
Result: 0.421

Q: Report measured SH2 binding enrichment; entry is EERNTYVNTTL [TEK_Y1102_K1100N]
Result: 1.22

Q: Give the reported SH2 binding enrichment for this sequence. KDGNGYISVAE [CALM3_Y100_A103V]
Result: 0.746

Q: Provide only the value of recorded SH2 binding enrichment for SGKSEYLLPVA [MYLK_Y611_R607G]
Result: 0.465

Q: Identify SH2 binding enrichment associated with the sequence EQDRAYLEGTC [HLA-C_Y183_L180D]
Result: 0.868

Q: Please report the measured SH2 binding enrichment for GHEYIYVDPMQ [PDGFRA_Y574]
Result: 0.633

Q: Respond only with SH2 binding enrichment recorded for VEKEKYVSYIS [JMJD1C_Y596_M591V]
Result: 0.748

Q: Complete the entry with SH2 binding enrichment for KILGTYYETGS [PAX2_Y72_R71T]
Result: 0.822

Q: State, in one line, measured SH2 binding enrichment of TSNQEYLDLSM [FGFR1_Y766]
Result: 0.781

Q: Indicate its recorded SH2 binding enrichment; the sequence in question is QEKKGYFEDRC [GLUL_Y336_R341C]
Result: 0.948

Q: Give the reported SH2 binding enrichment for this sequence. ECKLFYSRKEG [PTPN11_Y263_L262F]
Result: 0.623

Q: For the sequence KRLKDYLTVLQ [USP25_Y425] , give its reported SH2 binding enrichment.
Result: 0.573

Q: Kindly indicate its recorded SH2 binding enrichment. Item: GFIISYREEEQ
Result: 0.633

Q: Consider the sequence ELQDDYEDTME [SLC4A1_Y8_M11T] and give its recorded SH2 binding enrichment.
Result: 0.516
